target: CAK complex (human Cdk7, human Cyclin H, MAT-1) (Homo sapiens, UniProt P50613); construct: made in house; host or cells: SF-900 insect cells co-infected with Flag-Cdk7 and Bab-Cyclin H baculoviruses; assay: in vitro time-resolved-fluorescence assay for the CAK kinase activity; assay type: biochemical; conditions: compound 20 uM; read-out: CAK % inhib; 20 uM
Sequence (P50613 with tags, fused parts or gaps): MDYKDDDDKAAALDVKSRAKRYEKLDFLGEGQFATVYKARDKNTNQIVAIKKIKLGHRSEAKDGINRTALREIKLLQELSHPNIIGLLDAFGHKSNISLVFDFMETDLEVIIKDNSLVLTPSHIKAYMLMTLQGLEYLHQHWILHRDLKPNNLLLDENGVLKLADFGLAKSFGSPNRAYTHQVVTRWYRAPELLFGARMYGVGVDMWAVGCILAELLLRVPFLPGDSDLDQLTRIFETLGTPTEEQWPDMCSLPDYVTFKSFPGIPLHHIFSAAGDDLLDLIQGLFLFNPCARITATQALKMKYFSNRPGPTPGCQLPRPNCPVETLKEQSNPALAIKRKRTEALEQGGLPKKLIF
Sequence (as listed by the source partner): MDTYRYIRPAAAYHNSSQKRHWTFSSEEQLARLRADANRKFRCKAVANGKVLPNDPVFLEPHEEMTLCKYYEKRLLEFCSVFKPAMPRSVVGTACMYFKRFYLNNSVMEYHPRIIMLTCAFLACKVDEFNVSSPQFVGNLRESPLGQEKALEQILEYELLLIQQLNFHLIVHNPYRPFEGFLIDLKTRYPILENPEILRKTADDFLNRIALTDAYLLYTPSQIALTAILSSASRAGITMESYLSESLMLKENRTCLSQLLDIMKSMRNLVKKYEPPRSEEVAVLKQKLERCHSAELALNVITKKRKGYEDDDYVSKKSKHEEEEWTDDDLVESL
Reported metric: inhibition at 20 µM (%)

1 = O=C(NCCCn1ccnc1)c1ccc(Nc2ncc3nnn(-c4ccc5c(c4)CCC5)c3n2)cc1
2 = CN(C)CC(O)COc1ccc(Nc2ncc3nnn(-c4ccc5ncccc5c4)c3n2)cc1 (stereo not shown)
// which entry has the larger inhibition at 20 µM value, 1 or 2 ? Indicate your choice by writing its label.
2
(2: 72.6%, 1: 42.7%)

I = c1cc(OCCCN2CCOCC2)ccc1Nc1ncc2nnn(-c3ccc4c(c3)CCC4)c2n1
II = CCCCNS(=O)(=O)c1ccc(OC)c(-n2nnc3cnc(Nc4ccc(C(=O)NCCN(CC)CC)cc4)nc32)c1
Select one. Lower inhibition at 20 µM: I or II Indicate your choice by writing its label.
I
(I: 48.7%, II: 110%)
